Source of measurements: patent EP4438596A1

Tested on: P. berghei ANKA parasites
Assay: Peters 4-day suppressive test, oral efficacy in P. berghei-infected mice
Type: in vivo, Plasmodium berghei
Conditions: Experiment 3; Balb/C mice; 1 mg/kg p.o. twice a day on days 0-3; day 8 p.i.
parasitemia (mean ± sd): recorded values
QUANTITY NAME: parasitemia (mean ± sd)

- COMPOUND: "CCc1nc(N)nc(N)c1OCCCOc1cccc(C(=O)NO)c1.Cl [8·HCl]"
  QUANTITY NAME: "parasitemia (mean ± sd)"
  RESULT: "1,37 ± 2,07%"
- COMPOUND: "CCc1nc(N)nc(N)c1OCCCOc1ccccc1/C=C/C(=O)NOCc1ccc(OC(C)=O)cc1 [Compound 16]"
  QUANTITY NAME: "parasitemia (mean ± sd)"
  RESULT: "5,33 ± 5,64%"
- COMPOUND: "CCc1nc(N)nc(N)c1OCCCOc1ccccc1CCC(=O)NO.Cl [1·HCl]"
  QUANTITY NAME: "parasitemia (mean ± sd)"
  RESULT: "1,31 ± 3,21%"
- COMPOUND: "CCc1nc(N)nc(N)c1OCCCOc1ccccc1/C=C/C(=O)NO.Cl [13·HCl]"
  QUANTITY NAME: "parasitemia (mean ± sd)"
  RESULT: "3,94 ± 3,06%"

====

System: P. berghei ANKA parasites
Experiment: Peters 4-day suppressive test, oral efficacy in P. berghei-infected mice
Type: in vivo, Plasmodium berghei
Settings: Experiment 3; Balb/C mice; 1 mg/kg p.o. twice a day on days 0-3; day 10 p.i.
parasitemia (mean ± sd): recorded values
QUANTITY NAME: parasitemia (mean ± sd)

- COMPOUND: "CCc1nc(N)nc(N)c1OCCCOc1cccc(C(=O)NO)c1.Cl [8·HCl]"
  TGT: "P. berghei ANKA parasites"
  QUANTITY NAME: "parasitemia (mean ± sd)"
  RESULT: "2,41 ± 2,84%"
- COMPOUND: "CCc1nc(N)nc(N)c1OCCCOc1ccccc1/C=C/C(=O)NOCc1ccc(OC(C)=O)cc1"
  TGT: "P. berghei ANKA parasites"
  QUANTITY NAME: "parasitemia (mean ± sd)"
  RESULT: "9,25 ± 7,38%"
- COMPOUND: "CCc1nc(N)nc(N)c1OCCCOc1ccccc1/C=C/C(=O)NO.Cl [13·HCl]"
  TGT: "P. berghei ANKA parasites"
  QUANTITY NAME: "parasitemia (mean ± sd)"
  RESULT: "6,02 ± 2,66%"
- COMPOUND: "CCc1nc(N)nc(N)c1OCCCOc1ccccc1CCC(=O)NO.Cl [1·HCl]"
  TGT: "P. berghei ANKA parasites"
  QUANTITY NAME: "parasitemia (mean ± sd)"
  RESULT: "0,7 ± 1,72%"

====

System: P. berghei ANKA parasites
Assay: Peters 4-day suppressive test, oral efficacy in P. berghei-infected mice
Assay type: in vivo, Plasmodium berghei
Details: Experiment 3; Balb/C mice; 1 mg/kg p.o. twice a day on days 0-3; day 7 p.i.
number of mice showing blood parasites: recorded values
QUANTITY NAME: number of mice showing blood parasites

- COMPOUND: "CCc1nc(N)nc(N)c1OCCCOc1ccccc1/C=C/C(=O)NOCc1ccc(OC(C)=O)cc1 [Compound 16]"
  QUANTITY NAME: "number of mice showing blood parasites"
  RESULT: "3/5"
- COMPOUND: "CCc1nc(N)nc(N)c1OCCCOc1cccc(C(=O)NO)c1.Cl [8·HCl]"
  QUANTITY NAME: "number of mice showing blood parasites"
  RESULT: "2/6"
- COMPOUND: "CCc1nc(N)nc(N)c1OCCCOc1ccccc1CCC(=O)NO.Cl [1·HCl]"
  QUANTITY NAME: "number of mice showing blood parasites"
  RESULT: "1/6"
- COMPOUND: "CCc1nc(N)nc(N)c1OCCCOc1ccccc1/C=C/C(=O)NO.Cl [13·HCl]"
  QUANTITY NAME: "number of mice showing blood parasites"
  RESULT: "5/6"

====

number of mice showing blood parasites: recorded values
Test system: P. berghei ANKA parasites
Experiment: Peters 4-day suppressive test, oral efficacy in P. berghei-infected mice
Format: in vivo, Plasmodium berghei
Details: Experiment 3; Balb/C mice; 1 mg/kg p.o. twice a day on days 0-3; day 10 p.i.
Description: Compounds powder was dissolved in DMSO and sonicated for 10 min. Appropriate volume of 50%W/v HPβCD was added dropwise under gentle swirling. […] P. berghei ANKA parasites stabilates conserved in liquid nitrogen were thawed and injected intraperitoneally (ip) into 2-3 mice (10^6 infected red blood cells (RBC) / mouse). […] On day 4 post infection (p.i.), the peripheral blood parasitemia of all mice was evaluated via microscopic examination of Giemsa-stained thin blood smears. […]

- COMPOUND: "CCc1nc(N)nc(N)c1OCCCOc1cccc(C(=O)NO)c1.Cl [8·HCl]"
  number of mice showing blood parasites: "4/6"
- COMPOUND: "CCc1nc(N)nc(N)c1OCCCOc1ccccc1CCC(=O)NO.Cl [1·HCl]"
  number of mice showing blood parasites: "1/6"
- COMPOUND: "CCc1nc(N)nc(N)c1OCCCOc1ccccc1/C=C/C(=O)NO.Cl [13·HCl]"
  number of mice showing blood parasites: "5/5"
- COMPOUND: "CCc1nc(N)nc(N)c1OCCCOc1ccccc1/C=C/C(=O)NOCc1ccc(OC(C)=O)cc1 [Compound 16]"
  number of mice showing blood parasites: "5/5"

====

IC50: recorded values
Tested on: P. falciparum 3D7-infected erythrocytes
Assay: Plasmodium falciparum growth inhibition assay (SYBR Green I, flow cytometry), drug-sensitive strain
Assay type: cell-based
Conditions: Plasmodium falciparum, 3D7, Erythrocyte; 48 h incubation; mean ± SD, n ≥ 2; read-out: Pf3D7 IC50
Where a name gives a salt, the structure may show the parent alone.

- MOLECULE: "CCc1nc(N)nc(N)c1OCCCOc1cc(OC)ccc1/C=C/C(=O)NO [14·HCl]"
  UNIT: "nM"
  IC50: 0.088
- MOLECULE: "CCc1nc(N)nc(N)c1OCCCOc1cc(Cl)ccc1/C=C/C(=O)NO [Compound 15]"
  UNIT: "nM"
  IC50: 0.082
- MOLECULE: "CCc1nc(N)nc(N)c1OCCCOc1ccccc1/C=C/C(=O)NOCc1ccccc1 [Compound 17]"
  UNIT: "nM"
  IC50: 0.331
- MOLECULE: "CCc1nc(N)nc(N)c1OCCCOc1ccccc1/C=C/C(=O)NOCc1ccc(OC(C)=O)cc1 [Compound 16]"
  UNIT: "nM"
  IC50: 0.067

====

System: P. berghei ANKA parasites
Experiment: Peters 4-day suppressive test, oral efficacy in P. berghei-infected mice
Format: in vivo, Plasmodium berghei
Conditions: Experiment 3; Balb/C mice; 1 mg/kg p.o. twice a day on days 0-3; day 4 p.i.
number of mice showing blood parasites: recorded values
QUANTITY NAME: number of mice showing blood parasites

- MOLECULE: "CCc1nc(N)nc(N)c1OCCCOc1ccccc1/C=C/C(=O)NOCc1ccc(OC(C)=O)cc1 [Compound 16]"
  TGT: "P. berghei ANKA parasites"
  RESULT: "1/5"
- MOLECULE: "CCc1nc(N)nc(N)c1OCCCOc1cccc(C(=O)NO)c1.Cl [8·HCl]"
  TGT: "P. berghei ANKA parasites"
  RESULT: "0/6"
- MOLECULE: "CCc1nc(N)nc(N)c1OCCCOc1ccccc1CCC(=O)NO.Cl [1·HCl]"
  TGT: "P. berghei ANKA parasites"
  RESULT: "0/6"
- MOLECULE: "CCc1nc(N)nc(N)c1OCCCOc1ccccc1/C=C/C(=O)NO.Cl [13·HCl]"
  TGT: "P. berghei ANKA parasites"
  RESULT: "2/6"

====

Tested on: P. berghei ANKA parasites
Test: Peters 4-day suppressive test, oral efficacy in P. berghei-infected mice
Assay type: in vivo, Plasmodium berghei
Conditions: Experiment 3; Balb/C mice; 1 mg/kg p.o. twice a day on days 0-3; day 8 p.i.
number of mice showing blood parasites: recorded values
QUANTITY NAME: number of mice showing blood parasites

- MOLECULE: "CCc1nc(N)nc(N)c1OCCCOc1ccccc1CCC(=O)NO.Cl [1·HCl]"
  QUANTITY NAME: "number of mice showing blood parasites"
  RESULT: "1/6"
- MOLECULE: "CCc1nc(N)nc(N)c1OCCCOc1cccc(C(=O)NO)c1.Cl [8·HCl]"
  QUANTITY NAME: "number of mice showing blood parasites"
  RESULT: "3/6"
- MOLECULE: "CCc1nc(N)nc(N)c1OCCCOc1ccccc1/C=C/C(=O)NO.Cl [13·HCl]"
  QUANTITY NAME: "number of mice showing blood parasites"
  RESULT: "5/6"
- MOLECULE: "CCc1nc(N)nc(N)c1OCCCOc1ccccc1/C=C/C(=O)NOCc1ccc(OC(C)=O)cc1"
  QUANTITY NAME: "number of mice showing blood parasites"
  RESULT: "5/5"
